protocol: MIN-102 single oral dose (SAD) pharmacokinetics in healthy subjects
conditions: human, in vivo, some doses
endpoint-label: AUC(0-inf)

{"compound": "CC(O)c1ccc(CCOc2ccc(CC3SC(=O)NC3=O)cc2)nc1 (racemic) [MIN-102]", "result": "20 to 400 µg·h/mL"}

# credit: patent US11938122B2
